measured on: rat cKIT ECD
Sequence (as listed by the source): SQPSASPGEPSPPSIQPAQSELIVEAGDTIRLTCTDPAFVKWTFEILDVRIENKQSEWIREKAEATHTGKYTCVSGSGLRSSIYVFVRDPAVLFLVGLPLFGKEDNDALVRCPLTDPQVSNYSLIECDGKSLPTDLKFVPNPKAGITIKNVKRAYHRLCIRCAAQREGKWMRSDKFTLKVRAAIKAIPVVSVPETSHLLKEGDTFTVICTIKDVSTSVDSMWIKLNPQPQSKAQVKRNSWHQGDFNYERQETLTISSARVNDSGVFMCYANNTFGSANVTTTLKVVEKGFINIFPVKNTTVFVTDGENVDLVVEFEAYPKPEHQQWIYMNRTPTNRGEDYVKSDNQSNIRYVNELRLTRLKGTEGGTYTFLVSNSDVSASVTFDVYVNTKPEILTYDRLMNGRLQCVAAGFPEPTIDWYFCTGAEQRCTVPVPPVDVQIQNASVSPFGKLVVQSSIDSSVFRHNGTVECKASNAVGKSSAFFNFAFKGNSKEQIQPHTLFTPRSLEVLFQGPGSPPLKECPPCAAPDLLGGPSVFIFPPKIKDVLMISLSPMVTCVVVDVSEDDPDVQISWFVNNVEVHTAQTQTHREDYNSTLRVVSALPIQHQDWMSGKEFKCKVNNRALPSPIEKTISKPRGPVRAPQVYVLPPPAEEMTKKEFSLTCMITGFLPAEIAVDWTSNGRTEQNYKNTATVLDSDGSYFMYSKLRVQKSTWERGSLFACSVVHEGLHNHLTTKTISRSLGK
assay notes: SPR (Biacore 2000) affinity measurement
Type: binding
condition info: 25° C., antibody captured, ECD in solution

| molecule | Affinity to rat cKIT |
| --- | --- |
| NEG087: anti-cKIT antibody of Table 1, VH SEQ ID NO 118, VL SEQ ID NO 127 (antibody, V domains shown) VH: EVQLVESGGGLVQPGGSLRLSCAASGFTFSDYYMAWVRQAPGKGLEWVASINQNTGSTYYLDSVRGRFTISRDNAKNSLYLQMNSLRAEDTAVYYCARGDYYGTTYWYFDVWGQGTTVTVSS VL: DIQMTQSPSSLSASVGDRVTITCRASQSISSYLNWYQQKPGKAPKLLIYYTSRLQSGVPSRFSGSGSGTDFTLTISSLQPEDFATYYCQQGRRLWSFGGGTKVEIK | Not reactive |
| 9P3: hybridoma derived anti-cKIT antibody, VH SEQ ID NO.9, VL SEQ ID NO.18 (antibody, V domains shown) VH: EVRLVESEGGLVQPRSSMKLSCTASGFTFSDYYMAWVRQVPEKGLEWVANINYDGSSTYYLDSLKSRFIISRDNAKNILYLQMSSLKSEDTATYYCARGDYYGTTYWYFDVWGTGTTVTVSS VL: DIQMTQTTSSLSASLGDRVTISCRASQDISNYLNWYQQKPDGTVKLLIYYTSRLQSGVPSRFSGSGSGTDYSLTISNLEQEDIATYFCQQGKKLWSFGGGTKLEIKR | Not reactive |
